# Protocol: inhibitors of larval lipid processing in zebrafish, primary screen, whole organism, PED6 fluorescence, gall bladder and intestine (AID 686);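 also: larvae 5 to 7 days old with five fish per well; signal comes from phospholipase A2 cleavage of quenched PED6 carried via bile; overnight exposure to compound and PED6 before scoring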
# Protocol Conditions: Zebrafish larvae PED6 lipid processing, fluorescence scoring; screened at 20 µM (by protocol)
Activity calls are given as the source filed them.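 The calls were made as follows: active = a full or partial loss of lipid-probe fluorescence in the fish gall bladder, intestine or both, judged by eye; inactive = no fluorescence loss, or compound toxic to the fish.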
Log the outcome using a class from active, inactive

Below are worked cases with known answers.
Compound | Category Label
CC1(C)CCN(Cc2ccccc2)C1CC#N (stereo not given) | inactive
CCN(CC)CCN1C(=O)c2ccccc2NC1c1cc(OC)c(OC)c(OC)c1 (stereo not given) | inactive
Cc1ccc(C(=O)/C=C/Nc2ccccn2)cc1 | inactive
CSc1nncc(=O)[nH]1 | inactive
CCOC(=O)CSc1nc(-c2ccc3c(c2)OCO3)ccc1C#N | inactive
CCOc1ccc(N=C2C(=O)N(CN3CCOCC3)c3ccccc32)cc1 | inactive
Cc1ccc(OCC(=O)N(C)CCc2ccccn2)cc1 | inactive
CCOc1ccc2nc(NC(NC(C)=O)(C(=O)OC)C(F)(F)F)sc2c1 (stereo not given) | inactive
Cc1cccc(C)c1OCC(=O)Nc1cccc(-c2nnc(-c3ccccc3)o2)c1 | inactive
Cc1ccccc1COc1ccc(/C(O)=C2/C(=O)C(=O)N(CCCn3ccnc3)C2c2ccco2)cc1 (stereo not given) | inactive

Qu. # fetch the recorded call for COc1ccccc1NC(=O)CSc1nnc(-c2ccc(NC(C)=O)cc2)n1C here
Ans. inactive

Qu. Repeat with COc1cccc(C(=O)N2CCN(Cc3ccccn3)CC2)c1OC
Ans. inactive

Qu. Repeat with Cc1cc(=O)oc(C)c1C(=O)NC1CC(C)(C)NC(C)(C)C1
Ans. inactive

Qu. Repeat with CCCSc1nc(N2CCOCC2)c2c(c1C#N)CCCC2
Ans. inactive

Qu. Repeat with CCOC(=O)CSc1nc(N)c(C(=O)Nc2ccc(N(C)C)cc2)s1
Ans. active

Qu. Repeat with CC1=C(C#N)C(=O)OC(C)(C)C1
Ans. inactive

Qu. Repeat with Cc1ccc(-n2ncc3c(N4CCCC4)ncnc32)c(C)c1
Ans. inactive

Qu. Repeat with CC(=O)C1=C(O)C(=O)N(c2ccc(Br)cn2)C1c1ccccc1F (stereo not given)
Ans. inactive

Qu. Repeat with COC(=O)c1ccc(CSc2nc(N3CCOCC3)c3c(c2C#N)CC(C)(C)OC3)o1
Ans. inactive

Qu. Repeat with CSc1nc2[nH]c3c(c2c2ncnn12)CCCC3
Ans. inactive

---

# Protocol: inhibitors of TNFa-induced NFkB p65 translocation, primary screen, imaging, HUVEC, MLSMR starter and 10KST1 sets (AID 438);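 also: compound added about 3h40 before a 20 min TNFalpha stimulation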
# Protocol Conditions: HUVEC TNFa-induced p65 nuclear translocation; measured here: nuclei count (cytotoxicity indicator), at 2.08 µM
Measurement Label: cell count
API note: the answer field is a bare number with no unit suffix.

Compound | Observed Measurement
COc1cccc(Cn2c(NCc3ccccn3)nc3c2c(=O)n(C)c(=O)n3C)c1 | 694
c1cncc(-c2nnc3n2N=C(c2cccs2)CS3)c1 | 523
CCOC(=O)C1=Nc2ccccc2C1=[N+]=[N-] | 714
C=CCOc1ccc(/C=N/n2cncn2)cc1OC | 517

Qu. Look up cell count: CCc1ccc(NC(=O)CSC2=C(C#N)C(c3ccc4c(c3)OCO4)CC(=O)N2)cc1 (centres undefined)
Ans. 599

Qu. Repeat with C=CCNc1nc(N2CCOCC2)c(C#N)c2c1CN(C)CC2
Ans. 600

Qu. Repeat with Cc1ccc(-c2nnc(N3CCN(C(=O)CN4C(=O)c5ccccc5C4=O)CC3)c3ccccc23)cc1
Ans. 375

Qu. Repeat with CC(C)C(NC(=O)c1ccco1)C(=O)NCC(c1ccco1)N1CCCCC1 (centres undefined)
Ans. 379

Qu. Repeat with O=C(Oc1oc(-c2ccco2)nc1C=Nc1ccccc1)c1ccco1
Ans. 504

---

# Study Target: Voltage-gated potassium channel subunit beta-2 (Rattus norvegicus) (UniProt P62483)
# Sequence (P62483 whole entry, looked up): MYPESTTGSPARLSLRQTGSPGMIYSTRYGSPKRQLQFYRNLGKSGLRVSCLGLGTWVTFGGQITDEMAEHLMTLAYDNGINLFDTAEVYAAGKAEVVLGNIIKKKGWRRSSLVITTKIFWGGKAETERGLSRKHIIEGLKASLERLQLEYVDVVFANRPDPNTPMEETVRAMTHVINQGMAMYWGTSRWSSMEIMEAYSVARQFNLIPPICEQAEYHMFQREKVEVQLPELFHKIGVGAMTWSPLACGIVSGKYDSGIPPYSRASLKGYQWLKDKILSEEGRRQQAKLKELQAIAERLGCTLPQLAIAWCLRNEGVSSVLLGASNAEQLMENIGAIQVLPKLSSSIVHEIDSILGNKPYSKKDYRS
# Protocol: KvBeta positive modulators, primary screen, biochemical, NADPH fluorescence (AID 623);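 also: fluorescence intensity change per second fitted from 20 to 320 s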
# Protocol Conditions: Recombinant KvBeta, NADPH fluorescence decrease slope, 10 min; at 10 µM; stronger effect = lower value
Measurement Label: NADPH fluorescence slope
API note: the answer field is a bare number with no unit suffix.

# count of solved cases: 5
Compound | Study Target | NADPH fluorescence slope
COC(=O)c1cc(S(=O)(=O)N2CCC(C)CC2)ccc1F | Voltage-gated potassium channel subunit beta-2 (Rattus norvegicus) (UniProt P62483) | -0.000117
Cc1cccc(-n2ncc3c(NCc4cccnc4)ncnc32)c1 | Voltage-gated potassium channel subunit beta-2 (Rattus norvegicus) (UniProt P62483) | -3.3e-05
CSc1nc(N)nc(SCC(=O)C23CC4CC(CC(C4)C2)C3)c1C#N | Voltage-gated potassium channel subunit beta-2 (Rattus norvegicus) (UniProt P62483) | -1.7e-05
COc1ccc(C)cc1NC(=O)CCC(=O)Nc1ccc2nc(N3CCN(C)CC3)cc(C)c2c1 | Voltage-gated potassium channel subunit beta-2 (Rattus norvegicus) (UniProt P62483) | 6e-06
Cc1cn2c(-c3ccc(Cl)cc3)nnc2s1 | Voltage-gated potassium channel subunit beta-2 (Rattus norvegicus) (UniProt P62483) | -4.1e-05

Qu. Look up NADPH fluorescence slope: CCCCCSc1nc(C)c(CC(=O)O)c(=O)[nH]1
Ans. -5.1e-06

Qu. Repeat with CN=C(c1ccco1)n1c(=S)nc(-c2ccco2)n(C)c1=S
Ans. -0.000102

Qu. Repeat with CCNC(=O)C1CC(=O)N(Cc2ccc3c(c2)OCO3)C(=Nc2ccc(F)cc2)S1 (centres undefined)
Ans. -0.000221

Qu. Repeat with CCc1ccccc1NC(=O)CSc1ncn[nH]1
Ans. -1.9e-06

Qu. Repeat with Cc1c(C#N)c2ccccc2n1CC(=O)N1CCc2ccccc2C1
Ans. -4.4e-05

Qu. Repeat with Cc1ccc(-c2noc(CCC(=O)NCCc3ccccc3Cl)n2)cc1
Ans. -3.6e-05

Qu. Repeat with Cc1cc(C)nc(SCc2csc(N)n2)n1
Ans. -4.2e-05

Qu. Repeat with CCCS(=O)(=O)Nc1c(C(=O)O)[nH]c2ccccc12
Ans. -3.3e-05

Qu. Repeat with O=C1N2c3ccccc3CCc3cccc(c32)C1(O)C(F)(F)F (centres undefined)
Ans. 1.4e-06

Qu. Repeat with Cc1cc(C)c(NC(=O)CSc2nnc(-c3ccncc3)n2Cc2ccco2)c(C)c1
Ans. -3.5e-05

Qu. Repeat with CC1=C(C#N)C(=O)OC(C)(C)C1
Ans. -7.4e-05

Qu. Repeat with CCCc1nnc(NC(=O)NCCN2C(=O)C3C4C=CC(C4)C3C2=O)s1 (centres undefined)
Ans. 1.8e-06

Qu. Repeat with CCOc1ccc(NC(=O)CN(c2cc(C)cc(C)c2)S(=O)(=O)c2c(C)noc2C)cc1
Ans. 1.1e-05

Qu. Repeat with CCOc1ccc(NC(=O)Cn2nnc(-c3ccccc3F)n2)cc1
Ans. 2.1e-05

Qu. Repeat with COc1ccc(S(=O)(=O)Nc2ccc(F)c(Cl)c2)cc1OC
Ans. -2e-05

Qu. Repeat with CCOC(=O)c1c(C)oc2ccc(OCC(=O)C(C)(C)C)cc12
Ans. -5.9e-05

Qu. Repeat with CC1=C(C(=O)Nc2ccccc2)C(c2ccccn2)n2nc(CCCO)nc2N1 (centres undefined)
Ans. -2.2e-05

Qu. Repeat with CCOc1ccc(C2C(C#N)=C(N)Oc3cc(C)n(Cc4ccco4)c(=O)c32)cc1OC (centres undefined)
Ans. -2e-05

Qu. Repeat with COc1ccc2[nH]cc(C(=O)CN(C)CCc3ccc(OC)c(OC)c3)c2c1
Ans. -7.3e-05

Qu. Repeat with CC1Cn2c(nnc2-c2ccc(F)cc2)S1 (centres undefined)
Ans. -2.2e-05

---

# inhibition of aggregation per record follows
# Protocol: inhibitors of mutant huntingtin aggregation, primary screen, imaging, exon1htt(103Q)mCFP cells, high-content imaging (AID 483);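 also: compound exposure lasted 3 days before fixation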
# Protocol Conditions: exon1htt(103Q)mCFP cell line, aggregate imaging, at 2 µM; stronger effect = higher value
Please reply with the bare figure in % and do not write the unit itself.

# count of solved cases: 5
Molecule | inhibition of aggregation / %
CCOC(=O)C1C2C=CC3(CN(c4cccc(Cl)c4)C(=O)C13)O2 (stereo not drawn) | 8.1
O=C(Cn1cnc2c(nnn2Cc2ccccc2)c1=O)c1ccc(Cl)cc1 | -6.2
c1ccc(-c2ccccc2OCCn2cncn2)cc1 | 22.9
CCOC(=O)c1sc(NC(=O)CSc2n[nH]c(-c3ccccc3)n2)c(C#N)c1C | -7.1
CCN(CC)CCCNc1oc(-c2cccc(Cl)c2)nc1C#N | -13.5

Qu. Look up inhibition of aggregation: CCCSc1nc2c(cnn2-c2ccc(Cl)cc2)c(=O)[nH]1
Ans. -9.2

Qu. Repeat with O=C(COc1ccccc1)Nc1nc2ccccc2[nH]1
Ans. 2.7

Qu. Repeat with c1coc(-c2nnc(NC3=NCCC3)o2)c1
Ans. 6.6

Qu. Repeat with CSCCC(NC(=O)c1ccco1)C(=O)O (stereo not drawn)
Ans. -0.5

Qu. Repeat with COc1cc2c(cc1OC)-c1cc(Nc3ccc4c(c3)OCCO4)nc(=O)n1CC2
Ans. 0.9
